# target-or-system: T1, human Sortilin expressed on 293 / HEK293T cells (human, UniProt Q99523 78-830)
# T1 construct: full-length recombinant human Sortilin; also called hSort; SORT1
# assay-comment: FACS, 293 cells;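 also: antibodies at 10 µg/ml bound to cells for 1 h on ice, detected with PE-labelled anti-human secondary antibody by flow cytometry, reported as mean fluorescence intensity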
endpoint: MFI

[
  {
    "binder": "S-16 (antibody, V domains shown, IgG) VH: QVQLVQSGAEVKKPGSSVKVSCKASGGTFSSYAISWVRQAPGQGLEWMGGIIPIFGTANYAQKFQGRVTITADESTSTAYMELSSLRSEDTAVYYCARSPYSGTRDFDLWGRGTLVTVSS VL: DIQMTQSPSSVSASVGDRVTITCRASQGISSWLAWYQQKPGKAPKLLIYAASNLQSGVPSRFSGSGSGTDFTLTISSLQPEDFATYYCQQGNSYPITFGGGTKVEIK",
    "MFI": 6280
  }
]

Exercise: Identify measured MFI associated with S-10 (antibody, V domains shown, IgG) VH: QVQLVQSGAEVKKPGASVKVSCKASGYTFTSYGISWVRQAPGQGLEWMGWISAYNGNTNYAQKLQGRVTMTTDTSTSTAYMELRSLRSDDTAVYYCARDPGGYGPTLYYYYGMDVWGQGTTVTVSS VL: EIVMTQSPATLSVSPGERATLSCRASQSVSSNLAWYQQKPGQAPRLLIYGASTRATGIPARFSGSGSGTEFTLTISSLQSEDFAVYYCQQYADWPPITFGGGTKVEIK
Key: 8660
